Measured Activity, listed per entry.
# Test system: Human gammaherpesvirus 4
# ASSAY SUMMARY: Induction of EBV-early antigen expressed in human Raji cells at 10^-6 M after 48 hrs by immunofluorescence assay relative to control
# Assay type: organism-based
# MEASUREMENT PARAMETERS: human gammaherpesvirus 4, raji, 1 µM
Report only the number, with the unit % understood.

Illustrative cases are given below, each with its answer.
CC1(C)CC[C@@H]2CC(=O)O[C@@H](CO)CC(=O)O[C@@H]3C[C@@H](CCCCc4cc(O)ccc4I)O[C@@]1(C3)O2
1.4
CC1(C)CC[C@@H]2CC(=O)O[C@@H](CO)CC(=O)O[C@@H]3C[C@@H](CCCCc4cc(O)ccc4Br)O[C@@]1(C3)O2
1.9

[Q] Recorded Activity for `CC1(C)CC[C@@H]2CC(=O)O[C@@H](CO)CC(=O)O[C@@H]3C[C@@H](CCCCc4cc(O)c(Br)cc4Br)O[C@@]1(C3)O2` , please?
[A] 2.1

====

# System: MCF7
# ASSAY SUMMARY: Growth inhibition of human MCF7 cells after 48 hrs by sulforhodamine B assay
# Type: functional
# MEASUREMENT PARAMETERS: MCF7, 48 h
READOUT TYPE: GI50

Recorded GI50, per entry:
CC(=O)Nc1ccc(CCCC[C@@H]2C[C@@H]3C[C@@]4(O[C@H](CCC4(C)C)CC(=O)O[C@@H](CO)CC(=O)O3)O2)cc1O
40.7 µM
CC1(C)CC[C@@H]2CC(=O)O[C@@H](CO)CC(=O)O[C@@H]3C[C@@H](CCCCc4cc(O)ccc4Br)O[C@@]1(C3)O2
18.2 µM
COc1cccc(CCCC[C@@H]2C[C@@H]3C[C@@]4(O[C@H](CCC4(C)C)CC(=O)O[C@@H](CO)CC(=O)O3)O2)c1
16.2 µM

Now for the compound whose GI50 we want.
[Q] Name the recorded GI50 for `CC1(C)CC[C@@H]2CC(=O)O[C@@H](CO)CC(=O)O[C@@H]3C[C@@H](CCCCc4cc(O)ccc4I)O[C@@]1(C3)O2` .
[A] 13.8 µM

====

# System: SNB-75
# ASSAY SUMMARY: Growth inhibition of human SNB75 cells after 48 hrs by sulforhodamine B assay
# Format: functional
# MEASUREMENT PARAMETERS: SNB-75, 48 h
Overview of reported GI50 across a group of compounds:

CC1(C)CC[C@@H]2CC(=O)O[C@@H](CO)CC(=O)O[C@@H]3C[C@@H](CCCCc4ccc(I)c(O)c4)O[C@@]1(C3)O2
12.3 µM
CC1(C)CC[C@@H]2CC(=O)O[C@@H](CO)CC(=O)O[C@@H]3C[C@@H](CCCCc4cc(O)ccc4I)O[C@@]1(C3)O2
10.5 µM
COc1cccc(CCCC[C@@H]2C[C@@H]3C[C@@]4(O[C@H](CCC4(C)C)CC(=O)O[C@@H](CO)CC(=O)O3)O2)c1
14.5 µM
CC1(C)CC[C@@H]2CC(=O)O[C@@H](CO)CC(=O)O[C@@H]3C[C@@H](CCCCc4cc(O)c(Br)cc4Br)O[C@@]1(C3)O2
5.89 µM
CC1(C)CC[C@@H]2CC(=O)O[C@@H](CO)CC(=O)O[C@@H]3C[C@@H](CCCCc4c(Br)cc(Br)c(O)c4Br)O[C@@]1(C3)O2
26.3 µM

[Q] Requested read-out GI50, target or system SNB-75, entry `CC(=O)Nc1ccc(O)cc1CCCC[C@@H]1C[C@@H]2C[C@@]3(O[C@H](CCC3(C)C)CC(=O)O[C@@H](CO)CC(=O)O2)O1`
[A] > 100 µM

[Q] Query for SNB-75: what GI50 does the record show for `CC1(C)CC[C@@H]2CC(=O)O[C@@H](CO)CC(=O)O[C@@H]3C[C@@H](CCCCc4cc(O)ccc4Br)O[C@@]1(C3)O2` ?
[A] 12.3 µM

[Q] Please tell me: GI50 of `CC(=O)Nc1ccc(CCCC[C@@H]2C[C@@H]3C[C@@]4(O[C@H](CCC4(C)C)CC(=O)O[C@@H](CO)CC(=O)O3)O2)cc1O` , system SNB-75?
[A] 41.7 µM

[Q] Lab request: please report GI50 under test system SNB-75 for `CC1(C)CC[C@@H]2CC(=O)O[C@@H](CO)CC(=O)O[C@@H]3C[C@@H](CCCCc4cccc(O)c4)O[C@@]1(C3)O2`
[A] 15.8 µM
